The reported measurements were obtained from patent US20040146507A1.

System tested: T1, rhesus CD11a (rhesus, UniProt H9Z8N3 26-1169)
T1 construct: whole, on cells; On rhesus peripheral blood lymphocytes or leukocytes; also called rhCD11a
T1 sequence: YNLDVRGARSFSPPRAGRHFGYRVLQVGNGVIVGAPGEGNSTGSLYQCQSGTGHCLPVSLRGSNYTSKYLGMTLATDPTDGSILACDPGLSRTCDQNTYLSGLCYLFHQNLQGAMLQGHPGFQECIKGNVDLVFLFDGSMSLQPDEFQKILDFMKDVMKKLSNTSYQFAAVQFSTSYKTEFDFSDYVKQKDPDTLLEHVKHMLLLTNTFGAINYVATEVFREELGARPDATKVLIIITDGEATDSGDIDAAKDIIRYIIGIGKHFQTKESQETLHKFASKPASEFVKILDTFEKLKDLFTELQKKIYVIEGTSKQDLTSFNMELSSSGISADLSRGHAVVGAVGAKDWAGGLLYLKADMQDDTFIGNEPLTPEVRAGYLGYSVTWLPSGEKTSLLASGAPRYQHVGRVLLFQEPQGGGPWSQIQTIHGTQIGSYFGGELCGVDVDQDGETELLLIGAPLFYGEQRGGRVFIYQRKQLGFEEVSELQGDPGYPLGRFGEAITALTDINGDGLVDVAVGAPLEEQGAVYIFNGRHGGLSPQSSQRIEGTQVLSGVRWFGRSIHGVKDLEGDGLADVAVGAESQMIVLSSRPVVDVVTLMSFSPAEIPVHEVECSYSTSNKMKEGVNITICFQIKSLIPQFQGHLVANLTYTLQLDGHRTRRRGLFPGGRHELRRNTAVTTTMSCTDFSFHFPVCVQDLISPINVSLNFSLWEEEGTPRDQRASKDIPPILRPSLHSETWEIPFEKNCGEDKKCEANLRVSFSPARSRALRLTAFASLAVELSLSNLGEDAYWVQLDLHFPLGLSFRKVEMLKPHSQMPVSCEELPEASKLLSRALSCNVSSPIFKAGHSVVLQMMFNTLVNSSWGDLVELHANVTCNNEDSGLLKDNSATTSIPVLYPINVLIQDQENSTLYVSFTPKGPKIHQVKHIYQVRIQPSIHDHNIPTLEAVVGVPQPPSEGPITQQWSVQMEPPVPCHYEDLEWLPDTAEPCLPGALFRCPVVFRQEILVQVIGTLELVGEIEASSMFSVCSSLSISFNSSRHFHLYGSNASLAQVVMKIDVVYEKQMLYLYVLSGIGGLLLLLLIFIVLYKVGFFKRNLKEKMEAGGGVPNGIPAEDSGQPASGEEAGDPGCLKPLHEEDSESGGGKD
Protocol: rhesus PBL binding
Recorded endpoint: Var.EC50/HuIgG1 EC50 (ratio)
Report only the number, with the unit ratio understood.

Examples from the recorded data:
Binder	Uom	Reading
HuIgG1 mutant AspH65Ala (antibody, V domains shown, HuIgG1 mutant, human IgG1; Kabat numbering) VH: EVQLVESGGGLVQPGGSLRLSCAASGYSFTGHWMNWVRQAPGKGLEWVGMIHPSDSETRYNQKFKARFTISVDKSKNTLYLQMNSLRAEDTAVYYCARGIYFYGTTYFDYWGQGTLVTVSS VL: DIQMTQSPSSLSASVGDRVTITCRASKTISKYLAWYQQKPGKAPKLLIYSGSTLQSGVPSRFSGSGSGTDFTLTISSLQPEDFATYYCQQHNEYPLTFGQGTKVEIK	ratio	1.1
HuIgG1 mutant GluH56Ala (antibody, V domains shown, HuIgG1 mutant, human IgG1; Kabat numbering) VH: EVQLVESGGGLVQPGGSLRLSCAASGYSFTGHWMNWVRQAPGKGLEWVGMIHPSDSATRYNQKFKDRFTISVDKSKNTLYLQMNSLRAEDTAVYYCARGIYFYGTTYFDYWGQGTLVTVSS VL: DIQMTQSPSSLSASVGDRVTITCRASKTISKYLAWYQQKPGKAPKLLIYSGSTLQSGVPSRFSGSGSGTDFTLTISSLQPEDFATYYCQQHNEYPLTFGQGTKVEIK	ratio	0.3

Turning now to a further record.
Input: What measured Var.EC50/HuIgG1 EC50 goes with HuIgG1 mutant SerH55Gln (antibody, V domains shown, HuIgG1 mutant, human IgG1; Kabat numbering) VH: EVQLVESGGGLVQPGGSLRLSCAASGYSFTGHWMNWVRQAPGKGLEWVGMIHPSDQETRYNQKFKDRFTISVDKSKNTLYLQMNSLRAEDTAVYYCARGIYFYGTTYFDYWGQGTLVTVSS VL: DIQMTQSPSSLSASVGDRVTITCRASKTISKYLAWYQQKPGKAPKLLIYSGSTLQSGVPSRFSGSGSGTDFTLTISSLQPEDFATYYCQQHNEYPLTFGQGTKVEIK ?
Output: 6.7
